# Tested on: SN12C
# assay-details: NCI tumour cell line growth inhibition, 48 h
Active and inactive are the calls of the source. No stated cut-off is given here; in the data, active = GI50 up to about 1.1 µM and inactive = higher.
Could you please pick one outcome from this set? active, inactive

1) COC1C(O)CC(OC2CC(Oc3cc4cc5c(c(O)c4c(O)c3C)C(=O)[C@@H](OC3CC(OC4CC(OC6CC(C)(O)C(OC(C)=O)C(C)O6)C(O)C(C)O4)C(O)C(C)O3)[C@H]([C@H](OC)C(=O)[C@@H](O)[C@@H](C)O)C5)OC(C)C2OC(C)=O)OC1C (some centres not stated)	active

Check the results log: what was the call for N#CCCC1(CCC#N)CCCCCCC(CCC#N)(CCC#N)C(O)C1O (configuration not stated) ?
inactive

Recorded test outcome, item Cc1cccc(N2C(=O)C3ON(C(C(N)=O)c4ccccc4)C(c4c5ccccc5c(Cl)c5ccccc45)C3C2=O)c1C (configuration not stated)
inactive

GET /call?item= O=[N+]([O-])c1ccc(Cl)cc1/C=N/C12CC3CC(CC(C3)C1)C2 returns the recorded outcome of this test.
inactive

Any idea what this test logged for O=C(c1ccccn1)c1nnn2ccccc12 ?
inactive

Hello, I am checking results. What call was entered for N#Cc1cc2c(cc1Cl)Sc1nccn1S2(=O)=O ?
inactive

What outcome does the record of this test show for CC1=C(C(=O)Nc2ccc([N+](=O)[O-])cc2)C(c2ccco2)C(C(=O)Nc2ccc([N+](=O)[O-])cc2)=C(C)N1 ?
inactive
